Listing: pIC50 of selected molecules
assayed.system: HIS-TGFβR1 T204D (Homo sapiens (Human), UniProt P36897, T204D)
Sequence (P36897 34-503 T204D): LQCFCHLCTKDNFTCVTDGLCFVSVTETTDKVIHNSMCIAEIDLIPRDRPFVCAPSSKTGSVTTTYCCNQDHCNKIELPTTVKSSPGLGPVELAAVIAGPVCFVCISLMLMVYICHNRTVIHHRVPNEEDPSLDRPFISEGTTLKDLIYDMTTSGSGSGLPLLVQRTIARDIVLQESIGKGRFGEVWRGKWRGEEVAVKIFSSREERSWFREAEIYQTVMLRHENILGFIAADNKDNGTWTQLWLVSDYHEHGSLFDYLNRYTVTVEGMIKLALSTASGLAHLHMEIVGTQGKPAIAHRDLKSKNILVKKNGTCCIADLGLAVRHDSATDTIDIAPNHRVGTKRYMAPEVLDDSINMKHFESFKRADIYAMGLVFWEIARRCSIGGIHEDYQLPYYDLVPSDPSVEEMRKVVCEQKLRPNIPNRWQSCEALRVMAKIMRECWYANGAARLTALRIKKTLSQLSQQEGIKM
test.description: HTRF probe-displacement assay, HIS-TGFβR1 T204D
cond: 1 hour at room temperature
pIC50: −log10 of the molar value.
experimental.endpoint: pIC50

structure | experimental.value
Fc1ccc(-c2nc(Nc3cc(Cl)ncc3F)c3cccn3n2)nc1 | 5.52
CN1CCC(N(C)Cc2ccn3nc(-c4ccccn4)nc(Nc4ccncc4F)c23)CC1 | 7.92
FC(F)(F)c1cccc(-c2nc(Nc3ccnc(Cl)c3)c3cccn3n2)n1 | 5.57
CC(C)(O)CCNC(=O)c1cnccc1Nc1nc(-c2cccc(C(F)F)n2)nn2cccc12 | 7.68

---

assayed.system: HIS-TGFβR1 T204D (Homo sapiens (Human), UniProt P36897, T204D)
test.description: HTRF probe-displacement assay, HIS-TGFβR1 T204D
cond: 1 hour at room temperature
Binary call on IC50 with cut-off 0.01 µM: strictly below means T, and equality or higher means F.

compound | class.name
Fc1cnccc1Nc1nc(-c2cccc(C(F)(F)F)n2)nn2ccc(CN3CCC(F)(F)CC3)c12 [Example 123] | F
Cc1cccc(-c2nc(Nc3ccncc3C(=O)NC3COC3)c3cccn3n2)n1 [Example 165] | F
O[C@H]1CC[C@H](NCc2ccn3nc(-c4ccccn4)nc(Nc4ccncc4F)c23)CC1 [Example 288] | T
O=C(NCc1nc[nH]n1)c1cnccc1Nc1nc(-c2cccc(C(F)F)n2)nn2cccc12 [Example 191] | F
NC(=O)c1cnccc1Nc1nc(-c2cccc(C(F)F)n2)nn2cccc12 [Example 228] | T
FC(F)c1cnccc1Nc1nc(-c2cccc(C(F)(F)F)n2)nn2cccc12 [Example 2] | F

---

assayed.system: HIS-TGFβR1 T204D (Homo sapiens (Human), UniProt P36897, T204D)
test.description: HTRF probe-displacement assay, HIS-TGFβR1 T204D
cond: 1 hour at room temperature
Listing: IC50 of selected compounds

compound | measurement.unit | IC50
O=C(Nc1cc(Nc2nc(-c3cccc(C(F)(F)F)n3)nn3cccc23)ccn1)[C@@H]1CCCN1 [Example 326] | nM | 88
O=C(NCc1ccn[nH]1)c1cnccc1Nc1nc(-c2cccc(C(F)F)n2)nn2cccc12 [Example 197] | nM | 42
O=C(c1cnccc1Nc1nc(-c2cccc(C(F)F)n2)nn2cccc12)N1CCC(O)CC1 [Example 200] | nM | 3500
CC(=O)Nc1cc(Nc2nc(-c3ccccn3)nn3ccc(CNCC(C)(C)O)c23)ccn1 [Example 117] | nM | 0.85
NC(=O)c1cnccc1Nc1nc(-c2ccccn2)nn2cccc12 [Example 83] | nM | 0.76
CN(C)CCNCc1ccn2nc(-c3ccccn3)nc(Nc3ccncc3F)c12 [Example 280] | nM | 1.4

---

assayed.system: HIS-TGFβR1 T204D (Homo sapiens (Human), UniProt P36897, T204D)
test.description: HTRF probe-displacement assay, HIS-TGFβR1 T204D
cond: 1 hour at room temperature
experimental.endpoint: log10(IC50) (log10 of the value in nM)

structure | experimental.value
COc1cccc(-c2nc(Nc3ccnc(N4CCOCC4)c3)c3cccn3n2)n1 | 3.46
CC(C)(O)CNCc1ccn2nc(-c3cccc(C(F)F)n3)nc(Nc3ccncc3F)c12 | 0.36
Fc1cc(Nc2nc(-c3cccc(C(F)(F)F)n3)nn3cccc23)ccn1 | 2.40
CC(=O)Nc1cc(Nc2nc(-c3ccc(F)c(C)n3)nn3cccc23)ccn1 | -0.08
Fc1cnccc1Nc1nc(-c2cscn2)nn2cccc12 | 0.91
Fc1cnccc1Nc1nc(-c2ccccn2)nn2ccc(CNc3ccc4[nH]nnc4c3)c12 | 0.72
Fc1cnccc1Nc1nc(-c2ccc[nH]2)nn2cccc12 | 2.28
Cc1cccc(-c2nc(Nc3ccncc3C(=O)N3CCOCC3)c3cccn3n2)n1 | 1.48
COc1cccc(-c2nc(Nc3ccncc3F)c3cc(NC(C)=O)cn3n2)n1 | 1.93
COc1cccc(-c2nc(Nc3ccnc(NC(C)=O)c3)c3cccn3n2)n1 | 0.46
O=C(NCCN1CCCC1)c1cnccc1Nc1nc(-c2ccccn2)nn2cccc12 | 1.28
COc1nccc(-c2nc(Nc3ccncc3F)c3cccn3n2)n1 | 2.72
COC(=O)Nc1cc(Nc2nc(-c3cccc(OC)n3)nn3cccc23)ccn1 | 0.70
COc1cccc(-c2nc(Nc3ccncc3F)c3cc(NS(C)(=O)=O)cn3n2)n1 | 1.75
CC(=O)Nc1cc(Nc2nc(-c3cccc(F)n3)nn3cccc23)c(F)cn1 | 0.52
COc1cccc(-c2nc(Nc3ccncc3F)c3c(CNC[C@@H](F)C(C)(C)O)ccn3n2)n1 | 1.99
O=C(c1cnccc1Nc1nc(-c2cccc(C(F)F)n2)nn2cccc12)N1CCC1 | 0.63
